Measured IC50 accompanies every entry in the list below.
- test system: MAPK14;MAPK11;MAPK12 (human) (UniProt Q16539)
- protocol notes: Inhibition of p38 Kinase Activity

molecule=Cc1ccc(C(N)=O)cc1Nc1nc(NCc2cccc3ccccc23)nc(N[C@@H]2CCNC2)n1 value_measured="< 1000 nM"
molecule=Cc1ccc(C(=O)Nc2cccc(N(C)C)c2)cc1Nc1nc(N[C@H]2CCNC2)nc(N(C)CC(C)C)n1 value_measured="< 1000 nM"
molecule=Cc1ccc(C(=O)NCCc2ccccc2)cc1Nc1nc(N[C@H]2CCNC2)nc(N(C)CC(C)(C)C)n1 value_measured="< 1000 nM"
molecule=CNCCN(C)c1nc(NCc2ccc(Cl)c(Cl)c2)nc(Nc2ccc3ncsc3c2)n1 value_measured="< 10000 nM"
molecule="CNC(=O)c1ccc(C)c(Nc2nc(N[C@H]3CCN(C(C)CO)C3)nc(N(C)CC(C)(C)C)n2)c1 (some centres not stated)" value_measured="< 1000 nM"

input: Hello, please tell me recorded IC50 for this one: CC(C)NC(=O)N1CC2CC1CN2c1nc(NCC(C)c2ccccc2)nc(Nc2ccc3ncsc3c2)n1 (configuration not stated)
output: < 10000 nM

input: Hello, please tell me recorded IC50 for this one: COc1nc(NCC(C)c2ccccc2)nc(Nc2ccc3ncsc3c2)n1 (configuration not stated)
output: < 10000 nM

input: Hello, please tell me recorded IC50 for this one: Cc1ccc(C(N)=O)cc1Nc1nc(N[C@H]2CONC2=O)nc(N(C)CC(C)(C)C)n1
output: < 1000 nM

input: Hello, please tell me recorded IC50 for this one: COc1ccc(CN2CCC(Nc3nc(Nc4cc(C(N)=O)ccc4C)nc(N(C)CC(C)C)n3)C2)cc1 (configuration not stated)
output: < 1000 nM

input: Hello, please tell me recorded IC50 for this one: CC(CNc1nc(Nc2ccc3ncsc3c2)nc(N(C)C)n1)c1ccccc1 (configuration not stated)
output: < 10000 nM

input: Hello, please tell me recorded IC50 for this one: CNCCN(C)c1nc(NCc2ccc3c(c2)OCO3)nc(NCC(C)c2ccccc2)n1 (configuration not stated)
output: < 10000 nM

Origin of values: the Kinase Knowledgebase extract (Sharma et al. 2016)
